These measurements were taken from PubChem BioAssay AID1745848.

- Test method notes: Confirmatory qHTS for Inhibitors of ATXN expression; also: nearly all actives have a fitted effect of over 65% in size
- Test context: ATXN2-luciferase reporter cells, luminescence, 24 h; series mostly up to 11.5 µM
The campaign covered roughly 2,100 compounds. About 940 (45%) were called active. Roughly 48% stayed inconclusive and do not appear here. Calls follow the shape of the dose curve; as a rule, active = well fitted inhibition curve with a large enough effect; inconclusive = small, poorly fitted or top-dose-only effect; inactive = no such curve, though single readings can be large or run the other way. So high a share suggests a set chosen from earlier hits. The list shows a part of the results.
Just give me one of these, please: active, inactive

Q. How was O=C(C1CCCCC1)N1CCN(c2ccnc3cc(Cl)ccc23)CC1 classified in this test?
A. active

Q. How was O=C(Nc1ccccc1C(=O)Nc1nnc(C(F)(F)F)s1)c1ccccc1 classified in this test?
A. active
